Quick reference: Selectivity of the listed items.
- TARGET_OR_TEST_SYSTEM: Adenosine receptors; A2a & A3 (Homo sapiens) (UniProt P0DMS8+P29274)
- ASSAY_TEXT: Ratio of binding to adenosine A2a and adenosine A3 receptor
- Format: protein assay

Worked cases, answers included:
{"COMPOUND": "CNc1nc(-n2cc(-c3cccnc3)cn2)nc2c1ncn2C1O[C@H](CO)[C@@H](O)[C@H]1O (stereo partly drawn)", "RESULT": 2000}
{"COMPOUND": "CNc1nc(-n2cc(C(=O)NCc3ccc(Cl)cc3)cn2)nc2c1ncn2C1O[C@H](CO)[C@@H](O)[C@H]1O (stereo partly drawn)", "RESULT": 25}
{"COMPOUND": "CNc1nc(-n2cc(-c3ccc(OC)cc3)cn2)nc2c1ncn2[C@@H]1O[C@H](CO)[C@@H](O)[C@H]1O", "RESULT": "> 300"}
{"COMPOUND": "CNc1nc(-c2cnn(Cc3ccccc3)c2)nc2c1ncn2C1O[C@H](CO)[C@@H](O)[C@H]1O (stereo partly drawn)", "RESULT": "> 50"}
{"COMPOUND": "CCCNc1nc(-n2cc(-c3ccc(OC)cc3)cn2)nc2c1ncn2C1O[C@H](CO)[C@@H](O)[C@H]1O (stereo partly drawn)", "RESULT": 50}

Ask: Record request: Selectivity value, item CNc1nc(-n2cc(-c3ccc4ccccc4n3)cn2)nc2c1ncn2C1O[C@H](CO)[C@@H](O)[C@H]1O (stereo partly drawn)
Reply: > 1600

Ask: Record request: Selectivity value, item CNc1nc(-n2cc(-c3ccncc3)cn2)nc2c1ncn2C1O[C@H](CO)[C@@H](O)[C@H]1O (stereo partly drawn)
Reply: > 800

Ask: Record request: Selectivity value, item CCCNC(=O)c1cnn(-c2nc(NC)c3ncn(C4O[C@H](CO)[C@@H](O)[C@H]4O)c3n2)c1 (stereo partly drawn)
Reply: > 200

###

- TARGET_OR_TEST_SYSTEM: Adenosine receptors; A1 & A3 (Homo sapiens) (UniProt P30542+P0DMS8)
- ASSAY_TEXT: Ratio of binding to adenosine A1 and adenosine A3 receptor
- Assay type: protein assay
MEASURE_NAME: Selectivity
Form rule: numeric answer, no unit written next to it.

Worked cases, answers included:
{"COMPOUND": "CNc1nc(-n2cc(-c3nc4ccccc4o3)cn2)nc2c1ncn2C1O[C@H](CO)[C@@H](O)[C@H]1O (stereo partly drawn)", "TARGET_OR_TEST_SYSTEM": "Adenosine receptors; A1 & A3 (Homo sapiens) (UniProt P30542+P0DMS8)", "MEASURE_NAME": "Selectivity", "QUANTITATIVE_RESULT": 1300}
{"COMPOUND": "OC[C@H]1OC(n2cnc3c(NCc4cccc(I)c4)nc(-n4cc(-c5ccccn5)cn4)nc32)[C@H](O)[C@@H]1O (stereo partly drawn)", "TARGET_OR_TEST_SYSTEM": "Adenosine receptors; A1 & A3 (Homo sapiens) (UniProt P30542+P0DMS8)", "MEASURE_NAME": "Selectivity", "QUANTITATIVE_RESULT": 24}
{"COMPOUND": "CNc1nc(-c2cnn(Cc3ccccc3)c2)nc2c1ncn2C1O[C@H](CO)[C@@H](O)[C@H]1O (stereo partly drawn)", "TARGET_OR_TEST_SYSTEM": "Adenosine receptors; A1 & A3 (Homo sapiens) (UniProt P30542+P0DMS8)", "MEASURE_NAME": "Selectivity", "QUANTITATIVE_RESULT": 13}

Ask: Request body: readout Selectivity, system Adenosine receptors; A1 & A3 (Homo sapiens) (UniProt P30542+P0DMS8), query "CCNc1nc(-n2cc(-c3ccc(OC)cc3)cn2)nc2c1ncn2[C@@H]1O[C@H](CO)[C@@H](O)[C@H]1O" . Return the value.
Reply: 90

Ask: Request body: readout Selectivity, system Adenosine receptors; A1 & A3 (Homo sapiens) (UniProt P30542+P0DMS8), query OC[C@H]1OC(n2cnc3c(NCc4cccc(I)c4)nc(-n4cc(-c5nccc6ccccc56)cn4)nc32)[C@H](O)[C@@H]1O (stereo partly drawn) . Return the value.
Reply: 7

###

- TARGET_OR_TEST_SYSTEM: Adenosine receptor A3 (Homo sapiens, UniProt P0DMS8)
- Sequence (P0DMS8 whole entry): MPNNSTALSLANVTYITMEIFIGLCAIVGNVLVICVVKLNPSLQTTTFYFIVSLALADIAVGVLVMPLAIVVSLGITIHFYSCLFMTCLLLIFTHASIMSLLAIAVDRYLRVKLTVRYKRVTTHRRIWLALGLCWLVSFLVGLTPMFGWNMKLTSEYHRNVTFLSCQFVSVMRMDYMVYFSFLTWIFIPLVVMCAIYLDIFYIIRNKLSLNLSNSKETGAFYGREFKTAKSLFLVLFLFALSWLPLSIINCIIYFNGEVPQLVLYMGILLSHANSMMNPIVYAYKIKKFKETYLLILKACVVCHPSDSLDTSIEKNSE
MEASURE_NAME: pKi
Lab note: report pKi as minus log10 of the concentration in molar units, number only.

Ask: Record request: pKi value, item CCCNc1nc(-n2cc(-c3ccc(OC)cc3)cn2)nc2c1ncn2C1O[C@H](CO)[C@@H](O)[C@H]1O (some centres not stated)
Reply: 7.19

Ask: Record request: pKi value, item CNc1nc(-n2cc(-c3ccc(Cl)cc3)cn2)nc2c1ncn2C1O[C@H](CO)[C@@H](O)[C@H]1O (some centres not stated)
Reply: 8.00

Ask: Record request: pKi value, item CNc1nc(-c2cnn(Cc3ccccc3)c2)nc2c1ncn2C1O[C@H](CO)[C@@H](O)[C@H]1O (some centres not stated)
Reply: 7.01

Ask: Record request: pKi value, item CNc1nc(-n2cc(-c3nc4ccccc4o3)cn2)nc2c1ncn2C1O[C@H](CO)[C@@H](O)[C@H]1O (some centres not stated)
Reply: 8.70

Ask: Record request: pKi value, item CCCNC(=O)c1cnn(-c2nc(NC)c3ncn(C4O[C@H](CO)[C@@H](O)[C@H]4O)c3n2)c1 (some centres not stated)
Reply: 7.72

Ask: Record request: pKi value, item "CNc1nc(-n2cc(-c3ccc(OC)cc3)cn2)nc2c1ncn2[C@@H]1O[C@H](CO)[C@@H](O)[C@H]1O"
Reply: 7.82

###

- TARGET_OR_TEST_SYSTEM: Adenosine receptors; A2a & A3 (Homo sapiens) (UniProt P0DMS8+P29274)
- ASSAY_TEXT: Ratio of binding to adenosine A2a and adenosine A3 receptor
- Format: protein assay
Quick reference: Selectivity of the listed items.
Form rule: numeric answer, no unit written next to it.

Worked cases, answers included:
{"COMPOUND": "CCNc1nc(-n2cc(-c3ccc(OC)cc3)cn2)nc2c1ncn2[C@@H]1O[C@H](CO)[C@@H](O)[C@H]1O", "MEASURE_NAME": "Selectivity", "QUANTITATIVE_RESULT": 100}
{"COMPOUND": "CNc1nc(-n2cc(-c3nc4ccccc4o3)cn2)nc2c1ncn2C1O[C@H](CO)[C@@H](O)[C@H]1O (some centres not stated)", "MEASURE_NAME": "Selectivity", "QUANTITATIVE_RESULT": 1200}

Ask: Record request: Selectivity value, item COc1ccc(-c2cnn(-c3nc(NCc4cccc(I)c4)c4ncn(C5O[C@H](CO)[C@@H](O)[C@H]5O)c4n3)c2)cc1 (some centres not stated)
Reply: 10

###

// endpoint pKi / system Adenosine receptor A1 (Homo sapiens)
Lab note: report pKi as minus log10 of the concentration in molar units, number only.

Worked cases, answers included:
{"COMPOUND": "CNc1nc(-n2cc(C(=O)NCc3ccc(Cl)cc3)cn2)nc2c1ncn2C1O[C@H](CO)[C@@H](O)[C@H]1O (some centres not stated)", "QUANTITATIVE_RESULT": 5.70}
{"COMPOUND": "COc1ccc(-c2cnn(-c3nc(NCc4cccc(I)c4)c4ncn(C5O[C@H](CO)[C@@H](O)[C@H]5O)c4n3)c2)cc1 (some centres not stated)", "QUANTITATIVE_RESULT": 5.35}

Ask: Request body: readout pKi, system Adenosine receptor A1 (Homo sapiens), query CNc1nc(-c2cnn(Cc3ccccc3)c2)nc2c1ncn2C1O[C@H](CO)[C@@H](O)[C@H]1O (some centres not stated) . Return the value.
Reply: 5.89

Ask: Request body: readout pKi, system Adenosine receptor A1 (Homo sapiens), query OC[C@H]1OC(n2cnc3c(NCc4cccc(I)c4)nc(-n4cc(-c5nccc6ccccc56)cn4)nc32)[C@H](O)[C@@H]1O (some centres not stated) . Return the value.
Reply: 6.11

Ask: Request body: readout pKi, system Adenosine receptor A1 (Homo sapiens), query CNc1nc(-n2cc(-c3ccncc3)cn2)nc2c1ncn2C1O[C@H](CO)[C@@H](O)[C@H]1O (some centres not stated) . Return the value.
Reply: 5.42

Ask: Request body: readout pKi, system Adenosine receptor A1 (Homo sapiens), query OC[C@H]1OC(n2cnc3c(NCc4cccc(I)c4)nc(-n4cc(-c5ccccn5)cn4)nc32)[C@H](O)[C@@H]1O (some centres not stated) . Return the value.
Reply: 5.38
